System: RXF 393 renal
Please state which outcome applies, choosing from active, inactive

Lab log entry: COc1cccc2c(Nc3ccc(C(=O)O)cc3)cc(-c3ccccc3)nc12 — outcome as called in the assay? inactive

For O=C(Nc1ccc(OCc2nnc(-c3ccc(Cl)cc3)o2)c(F)c1)Nc1ccc(Cl)c(Cl)c1 , what call appears in the results of this test? inactive

Recorded call for COc1ccc2c(c1)SC1=NNC(Cl)C(=O)N12 (stereo not given) ? inactive

What did the test return for O=C1C=C(Nc2ccc([N+](=O)[O-])cc2)c2ccccc2C1=O ? inactive

Field: outcome | Entry: C[C@]12CC[C@@H]3c4ccc(O)cc4CC[C@H]3[C@@H]1CC[C@@H]2NS(=O)(=O)c1cccc(OC(F)(F)F)c1 inactive

Any idea what this test logged for COc1ccc(/C=C/C(=O)c2ccc(NC(=O)CSc3nnc(-c4ccc(OC)c(OC)c4)n3-c3ccccc3)cc2)cc1 ? inactive

Tell me the assay call for COc1ccc(C2C(C#N)=C(N)Oc3c2sc2c(C)cccc32)cc1 (stereo not given) please. active

Recorded test outcome, item CC/C(=C(\c1ccc(Cl)cc1)c1ccc(OCCN2CCCCC2)cc1)c1ccc(O)cc1 inactive

Per the records of this test, what outcome belongs to COC(=O)c1ccc2[nH]c(O)c(C(=Nc3ccc(N(C)C(=O)CN4CCN(C)CC4)cc3)c3ccc(OC)cc3)c2c1 ? inactive

Would you mind telling me which call this test gave CC[C@H](Nc1cc(C)nc(N)n1)c1nc2cccc(NCc3ccc(C(=O)NO)cc3)c2c(=O)n1-c1ccccc1 ? inactive

----------
Tested on: UACC-257 melanoma
Give your call using only these classes: 1 for active, 0 for inactive

Check the results log: what was the call for COc1ccc(C2C(C#N)=C(N)Oc3c2sc2c(C)cccc32)cc1 (stereo not given) ? 0

What is the recorded call for this compound in the test? Cc1nc2ccccn2c1NC(=O)NNC(=S)Nc1ccc(Cl)cc1 0

Can you look up the reported call for O=C(O)CN1CCN(CC(=O)O)CCN(CC(=O)O)CC1 for me? 0

Query: recorded result category for CC(=O)N1CCN([C@H]2CCC[C@@H](NC(=O)c3cc4c(F)ccc(C)c4[nH]3)C2)CC1 in this test 0

Write down the call the test reported for this compound. Item: COc1ccc(C(O)c2cc3c(N)c(C(=O)Nc4ccc(Br)cc4)sc3nc2C)cc1 (stereo not given) 0

Could you check what this test reported for CCOC(=O)c1ccc2c(c1)c1c(C)c3cnccc3c(C)c1n2C ? 1

Give the logged outcome of this assay for the following compound: C=CC(=O)N1CC2(CCC(n3nc(-c4ccc(Oc5ccccc5)cc4)c4c(N)ncnc43)CC2)C1 0

Kindly provide the recorded test outcome for the following compound: CCCCCCC[CH2][Sn]([Cl])([Cl])[CH2]CCCCCCC 0

What classification did CCC[CH2][Sn]1([CH2]CCC)[O]CC(c2ccccn2)C[O]1 end up with in this test? 0

For CC(=O)Nc1cccc(C#Cc2cncnc2Nc2ccc(OCc3cccc(F)c3)c(Cl)c2)n1 , what call appears in the results of this test? 0

----------
Answer each item with its documented TGI.
Test system: HCC-2998 colon
Test: NCI tumour cell line growth inhibition, 48 h
Your answer is read as µM, so omit the unit and give the number.

Return TGI measured with HCC-2998 colon given this molecule: Cc1ccc(/C=C2\CN(C)CC3=C2NC(=S)NC3c2ccc(C)cc2)cc1 (stereo not drawn) 78.9

Request: TGI, test system HCC-2998 colon, entry C/C(Cc1ccc(Cl)cc1)=C(\c1ccc(OCCN2CCCCCC2)cc1)c1ccc(OC(=O)c2ccccc2)cc1 3.53

Under HCC-2998 colon: TGI value of O=C(C=P(c1ccccc1)(c1ccccc1)c1ccccc1)CC(=S)CC(=O)C=P(c1ccccc1)(c1ccccc1)c1ccccc1 ? 14.7

What reported TGI corresponds to C=C1C(=O)c2sccc2C(c2ccc(OC)c(OC)c2)C1COC(C)=O (stereo not drawn) on HCC-2998 colon? 7.56
